- Tested on: MS2 coat protein
- assay: apparent KD of MS2 coat protein; designed switch direction (-1 OFF switch, 1 ON switch): 1; higher = weaker reporter binding
- test conditions: input ligand: none
measured quantity: apparent KD of MS2 coat protein (nM)
Enter your answer as a number in nM; do not include the unit.

Recorded results for 4 sequences are shown here.
[[record]]
input_sequence = "GGCUGCGUUGUGAAGGAUAUCCGCGUCUGGACAUGAGGAUCACCCAUGUAUGCUUGGAUCAUGCCGGAGAAGGUCACGAAUGAUU [JR_SS002_Sub1214] (Eterna round: R96, puzzle: Same State 2)"
measured_quantity = "apparent KD of MS2 coat protein"
experimental_value = 32.9

[[record]]
input_sequence = "AGGCUCAGACGAGGAUAUAUGUGGUCACAUGAGGAUCACCCAUGUCUCGAGCUUCGGCUCGAGGCAUAGAAGGUGUCUGAGCCA [SSNG2/5-C1] (Eterna round: R96, puzzle: Same State NG 2)"
measured_quantity = "apparent KD of MS2 coat protein"
experimental_value = 25.7

[[record]]
input_sequence = "GCCGCGUUUCGCGCCUACAUGAGGAUCACCCAUGUAUGUCGGCAGGAUAUCGUUUGCUUUGCAAACGAGAAGGGCUGUUGUGGC [salish99_SSNG3_R04_011] (Eterna round: R96, puzzle: Same State NG 3)"
measured_quantity = "apparent KD of MS2 coat protein"
experimental_value = 14.4

[[record]]
input_sequence = "UUUAGAUUCAGAGGAUAUUGAUGUUGUAAGUAACAAGAAGGCUGAAUGGUUAGAAUUGUUUAUUAACAUGAGGAUCACCCAUGU [JR_SSNG1_Sub009] (Eterna round: R96, puzzle: Same State NG 1)"
measured_quantity = "apparent KD of MS2 coat protein"
experimental_value = 20.8


Could you share which apparent KD of MS2 coat protein value was measured for AUGAUAUACUCAGGAUAUAUGCGAGACGACGAGAUAGAAGGGAGAAGAUAAUGACGUACAUGAGGAUCACCCAUGUGAGGAUCA [Same State NG1 S4] (Eterna round: R96, puzzle: Same State NG 1) ?
34

====

- Tested on: MS2 coat protein
- assay: apparent KD of MS2 coat protein; designed switch direction (-1 OFF switch, 1 ON switch): -1; higher = weaker reporter binding
- test conditions: Eterna round: R95; input ligand: none
Entries are sorted into classes by apparent KD of MS2 coat protein as follows: bin 1 = under 20 nM, bin 2 = from 20 nM up to 40 nM, bin 3 = 40 nM and over

Below are worked cases with known answers.
[[record]]
input_sequence = "UUUAAUUUUUUUUUUUUACAAGCUUUUUGCUCGUCUUAUACAUGAGGAUCACCCAUGUAGAUGGGAAAUGAAUUAUC [JMF 98] (puzzle: Sensor v3, turn-off variant 2)"
group = "bin 2"

[[record]]
input_sequence = "GCGAAAGCAAGCAAGUGAAACAUGAGGAUCACCCAUGUCCUCGUUUGCUCGUCUUAUAAGCUAUGCGAAAGCAUAGC [Sensor 3, v1 - 4] (puzzle: Sensor v3, turn-off variant 1)"
group = "bin 1"

[[record]]
input_sequence = "UCAUACGUUGAGGAUAUCUCAGUUAGAAUAUUUAGAGAAGGCGAUACAUGAGGAUCACCCAUGUUUAUGGGCAU [Ex-6 Malc#6] (puzzle: Exclusion 6)"
group = "bin 3"

[[record]]
input_sequence = "AGUCCACAUGAGGAUCACCCAUGUCAGGAUAUACGCAAUACAAAAGAACCCAUCAAAAGUAGAAGGGACAGGGA [Getequ] (puzzle: Exclusion 1)"
group = "bin 1"

[[record]]
input_sequence = "GACUGGACGUGGUCUGGUAACAUGAGGAUCACCCAUGUAGGUCUAAGAACAUGCCUUUUGCACGCUCGUCUUAUAUA [JR_SV3TOV1_Sub064] (puzzle: Sensor v3, turn-off variant 1)"
group = "bin 2"

[[record]]
input_sequence = "UAACAGCGAGGAUAUACAUGAGGAUCACCCAUGUACGGGUCCGGGUUUUCGUCCAAAAGUAGAAGGCGCAAUAA [Laongeedte] (puzzle: Exclusion 3)"
group = "bin 3"

[[record]]
input_sequence = "AGUACUAUGCGUGCUGACAUGCGUAGUGCAGCAGGUGUAACAUGAGGAUCACCCAUGUCCUCAUUUGCUCGUCUUAA [Mat - Sensor v3 - Turn-off var 2 - D13] (puzzle: Sensor v3, turn-off variant 2)"
group = "bin 3"

[[record]]
input_sequence = "GAGAAAUUAUAGGAUAUCGAAAGUAUAAUUUAACGAGAAGGAUGAACAUGAGGAUCACCCAUGUGGUAUCAUGG [JL-ex6-3.10] (puzzle: Exclusion 6)"
group = "bin 3"


Moving on to another sequence below.
# classify by apparent KD of MS2 coat protein band: AGAAAAGCCCAUGACCGCAAGCUUUUUGCUUGUCUUACCACAUGAGGAUCACCCAUGUGACAUGGGCUCCUUAUAAU [Atcein] (puzzle: Sensor v3, turn-off variant 2)
bin 1

====

- System: K4 kissing-loop RNA reporter;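 also: bound reporter read as fluorescence of individual clusters on recovered sequencing chips by microscopy, with normalized cluster intensities fitted with a binding model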
- assay: apparent KD of K4 kissing-loop reporter; higher = weaker reporter binding
- test conditions: Eterna round: R107; input ligand: theophylline 20 uM
measured quantity: apparent KD of K4 kissing-loop reporter (µM)
Give the value, in units of µM, as a plain number.

Please review the following examples before continuing.
[[record]]
input_sequence = "GUCUGCGUCUCGGCCGCCACUCACUAGUGAUGUUAGUAAGGAGCGACUAGAGAAGUCCAGUUGAUGAGGACCGGGAGACGCAAAA [Exclusion Tryptophan B GF4]"
experimental_value = 0.0858

[[record]]
input_sequence = "UGUCAUUGGUCUGAUACCAGAAGAAAUCUGGAGUGAUGUUCCAAGUCGACAAAAUGUCGCUUCCCUUGGCAGCAGACCGAUGACU [TheoBS 23 #SwitchBubble 13 #StaticStem]"
experimental_value = 0.222

[[record]]
input_sequence = "UAACUGCAGUGAUGUUGCAGAUGUCCUGACUAGGAUAUCAGGAAACUGAGAAGGAGUGCCUUCUAAACAUCACAGAAGGUGGACA [KL-SSFMN-A28]"
experimental_value = 0.286

[[record]]
input_sequence = "GGAUAGGACAGAGGAUAUGGCAGUCUACAAAGUAGGCUGAAAUAAAUCCUUGAAUGGAGUGAUGUUCCAGAAGGCUGUCCUAUCG [FmnBX 23 #SwitchBubble #StaticStem #Palindromic]"
experimental_value = 0.169


Switching to the query record.
I have this sequence here, AGGAUCACGUCAGUGAUGUUGACAAGAGAUACCAGAGACGAAAGUCUCCCUUGGCAGCUCAUUGUGAUCCGUGACAAAGGUCACA [Omei KL hio A SS C v2] , and I need its recorded apparent KD of K4 kissing-loop reporter.
0.593

====

- Tested on: MS2 coat protein
- assay: apparent KD of MS2 coat protein; designed switch direction (-1 OFF switch, 1 ON switch): 1; higher = weaker reporter binding
- test conditions: input ligand: none
The sequences listed here are annotated with their apparent KD of MS2 coat protein.
Supply the numeric figure in nM, leaving out any unit text.

Please review the entries below; each comes with its answer.
[[record]]
input_sequence = "AAAAAACAUGAGGAUCACCCAUGUCGAAAGACAUGAGGAUAUGUGUGGAAACCAUACUAUACAGAAGGCAUAAAAA [SS1 - 1009] (Eterna round: R96, puzzle: Same State 1)"
measured_quantity = "apparent KD of MS2 coat protein"
experimental_value = 96.8

[[record]]
input_sequence = "GGUACCAUCACAGGAUAUGCUAUCCUUUGGGUAGCAGAAGGGUGAUACAUGAGGAUCACCCAUGUGGUGCCAGGGCGUGAGCCC [JL SSNG1 1.91] (Eterna round: R96, puzzle: Same State NG 1)"
measured_quantity = "apparent KD of MS2 coat protein"
experimental_value = 331

[[record]]
input_sequence = "GCGAAAUGAUGAAACAUGAGGAUCACCCAUGUAACGAGAGAUGAGGAUAUCGGAAAGGGAGGAACCGAGAAGGCAUGGUCACGC [AK SSNG3-V2-26.1] (Eterna round: R96, puzzle: Same State NG 3)"
measured_quantity = "apparent KD of MS2 coat protein"
experimental_value = 48.2

[[record]]
input_sequence = "UCGGGCGUACUUGCUGACAUGAGGAUCACCCAUGUAAUUGGGAAGGAUAUGGUUCCGUUUCGGUUCCAGAAGGUCCUGGGUGCU [salish99_SSNG3_r04_312] (Eterna round: R96, puzzle: Same State NG 3)"
measured_quantity = "apparent KD of MS2 coat protein"
experimental_value = 443


Could you share which apparent KD of MS2 coat protein value was measured for UCGUUCAUCGUAGGAUAUCUAGGAUAUGAACGAGGAUCACCCGAGCAGCAUCAGCGCAUCAGAGGAGAGAAGGACGAUGAUGCG [pwkr ssNG2 2F5 2FMN.4] (Eterna round: R96, puzzle: Same State NG 2) ?
172

====

- Test system: MS2 coat protein
- assay: apparent KD of MS2 coat protein, switch ON state; designed switch direction (-1 OFF switch, 1 ON switch): 1; higher = weaker reporter binding
- test conditions: FMN input: 0 or 200 uM; Eterna round: R93 (includes R88 designs)
Record Condition met whenever apparent KD of MS2 coat protein is at 0.03 µM or higher; record Condition not met when lower.

[[record]]
input_sequence = "AACAAUCUAUCUGAGGAUAUCAAGUCAAAGACAUGAGGAUCACCCAUGUUGCAGGAAACUGCUCUUGAGAAGGCAGAUAGAUUGA [SS2: 1130]"
target_or_system = "MS2 coat protein"
group = "Condition not met"

[[record]]
input_sequence = "AAAAAAAAAAACUAGGAUAUUUAACGGACAACAUGAGGAUCACCCAUGUCACAAAAAAAAAUAGUAAAGAAGGAGUAAAAAAAAAA [Same State 2]"
target_or_system = "MS2 coat protein"
group = "Condition not met"

[[record]]
input_sequence = "GAAAAACAUGAGGAUCACCCAUGUAGAAACAUGGGAGGAUAUACAAAGACGAAAGUCAAAGUAGAAGGCCUAAAAA [Mat - Same State 1 - Mod - D160]"
target_or_system = "MS2 coat protein"
group = "Condition met"

[[record]]
input_sequence = "AGGAGACAUGAGGAUCACCCAUGUGAGAAGAGGCGAGGAUAUCGAAAAAAAAAAAAAAAACGAGAAGGCGCGAGAA [salish99-SS1-002]"
target_or_system = "MS2 coat protein"
group = "Condition met"

[[record]]
input_sequence = "AUUUUACAUGAGGAUCACCCAUGUUUUGGUGGAUCAGGAUAUAAAUUGAAUGAGUUUUAGUUAGAAGGGAUAUAUA [JR_SS001_Sub505]"
target_or_system = "MS2 coat protein"
group = "Condition met"

[[record]]
input_sequence = "GGAGCCGGCACUGAGGAUAUUCAUAUUAAAACAUGAGGAUCACCCAUGUAGGCCAGAAGGCCUUGGGAGAAGGCAGGUCGACUCG [Diqureveri]"
target_or_system = "MS2 coat protein"
group = "Condition not met"

[[record]]
input_sequence = "AAAAAACAUGAGGAUCACCCAUGUAAUAAAACGUCAGGAUAUUGAUUUUAUUAUUUAUUGCAAGAAGGGACAAAAA [Same State 1 - Omei 2]"
target_or_system = "MS2 coat protein"
group = "Condition not met"

[[record]]
input_sequence = "UGAUUGAGAUUGUAGGAUAUUGGAAAAGCCACAUGAGGAUCACCCAUGUCAAAAAAAAAAAAAAACAAGAAGGGCGGUUUUAGUUA [Same State 2]"
target_or_system = "MS2 coat protein"
group = "Condition met"

[[record]]
input_sequence = "AAAAGACAUGAGGAUCACCCAUGUCAAGACGUAGGAGGAUAUGUCGUGAAAAAAGACUUGGCAGAAGGCCUGUGUC [SS1 - 41]"
target_or_system = "MS2 coat protein"
group = "Condition not met"

[[record]]
input_sequence = "GAAGACAUAGUUCAGGAUAUGGGAAUAGUCACAUGAGGAUCACCCAUGUGCAUUUAUAUGCGCGCUCAGAAGGGAGGUAGAUAAU [Mat - Same state - Malcolm Mod - D118]"
target_or_system = "MS2 coat protein"
group = "Condition not met"


Does the sequence GGAACACAUGAGGAUCACCCAUGUCAAGGAGGUCGAGGAUAUAGGAAAAAAAAAAAAAAAUUAGAAGGUGAGGAGG [V1] have recorded apparent KD of MS2 coat protein that is 0.03 µM or more?
Condition met

The reported measurements were obtained from the supplement of paper PMC9170038.
